- METHOD_DESCRIPTION: Partition coefficient and apparent partition coefficient, n-octanol / phosphate buffer pH 7.4 at 25° C.
- Assay type: physicochemical
- MEASUREMENT_CONDITIONS: Papp=P/(1+10^pKa-pH), n-octanol / phosphate buffer pH 7.4, 25° C.
- Protocol: Melting points (peak onset temperature) were determined by Differential Scanning Calorimetry using a Perkin Elmer DSC 7. The saturation solubilities were determined by shaking an excess of the compound in phosphate buffer pH 7.4 at 25° C. […] Pharmaceutical Press p70]: where P=Co /Cw and where Co is the concentration of the drug in n-octanol and Cw is the concentration of the drug in phosphate buffer pH 7.4 at 25° C. Drug concentrations were determined by HPLC.
Listed below: Apparent Partition Coefficient values for each entry.
Give only the figure.

Tell me the measured Apparent Partition Coefficient of CC(C)(C)NCC(O)c1ccc(O)c(CO)c1 (centres unmarked) [Salbutamol base] , please.
0.005222

What about this compound? CNS(=O)(=O)Cc1ccc2[nH]cc(CCN(C)C)c2c1 [Sumatriptan caprate, sumatriptan caprate]
0.009015

* * *

Reported Apparent Partition Coefficient values for the following compounds.
- METHOD_DESCRIPTION: Partition coefficient and apparent partition coefficient, n-octanol / phosphate buffer pH 7.4 at 25° C.
- Assay type: physicochemical
- MEASUREMENT_CONDITIONS: Papp=P/(1+10^pKa-pH), n-octanol / phosphate buffer pH 7.4, 25° C.

[[record]]
compound = "CC(C)(C)NCC(O)c1ccc(O)c(CO)c1 (stereo not drawn) [Salbutamol glycodeoxycholate, salbutamol glycodeoxycholate]"
result = "0,007584"


Which Apparent Partition Coefficient reading was recorded for the compound CC(C)(C)NCC(O)c1ccc(O)c(CO)c1 (stereo not drawn) [Salbutamol caprate] ?
0,006714

Also CNS(=O)(=O)Cc1ccc2[nH]cc(CCN(C)C)c2c1 [Sumatriptan base] , if possible.
0,004039
